Reported parental ratio is given for each of the following binders.
- target_desc: CD28 (human) (UniProt P10747)
- protocol_notes: flow cytometry, cells expressing CD28
Give the figure only, with no unit attached.

Reference set, count: 6
binder	readout	reported_measurement
variant CD80 E24G/R29D/Y31L/Q33H/K36G/M38I/T41A/M43R/M47T/F59L/E81V/L85R/K89N/A91T/F92P/K93V/R94L/H96R/N149S/C182S (Fc fusion) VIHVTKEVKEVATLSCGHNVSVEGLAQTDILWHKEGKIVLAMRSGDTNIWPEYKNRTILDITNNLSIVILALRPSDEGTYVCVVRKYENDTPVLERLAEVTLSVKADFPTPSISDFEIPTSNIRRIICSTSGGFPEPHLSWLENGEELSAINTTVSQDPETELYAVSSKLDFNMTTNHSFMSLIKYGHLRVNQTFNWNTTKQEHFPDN	parental ratio	0.08
variant CD80 R29V/M43Q/E81R/L85I/K89R/D90L/A91E/F92N/K93Q/R94G (Fc fusion) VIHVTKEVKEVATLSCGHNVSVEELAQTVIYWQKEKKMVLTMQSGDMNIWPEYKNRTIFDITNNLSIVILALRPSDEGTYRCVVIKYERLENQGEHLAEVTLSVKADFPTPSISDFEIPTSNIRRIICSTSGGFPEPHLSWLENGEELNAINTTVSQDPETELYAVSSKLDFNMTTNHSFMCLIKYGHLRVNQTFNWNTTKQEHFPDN	parental ratio	0.08
variant CD80 A91G/L102S (Fc fusion) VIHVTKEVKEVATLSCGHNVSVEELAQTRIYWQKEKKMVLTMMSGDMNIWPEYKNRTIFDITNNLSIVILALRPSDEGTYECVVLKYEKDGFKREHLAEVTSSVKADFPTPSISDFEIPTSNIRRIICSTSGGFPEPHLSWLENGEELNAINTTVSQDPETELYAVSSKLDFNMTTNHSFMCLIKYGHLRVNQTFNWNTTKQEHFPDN	parental ratio	0.06
variant CD80 V22A/L70Q/S121P (Fc fusion) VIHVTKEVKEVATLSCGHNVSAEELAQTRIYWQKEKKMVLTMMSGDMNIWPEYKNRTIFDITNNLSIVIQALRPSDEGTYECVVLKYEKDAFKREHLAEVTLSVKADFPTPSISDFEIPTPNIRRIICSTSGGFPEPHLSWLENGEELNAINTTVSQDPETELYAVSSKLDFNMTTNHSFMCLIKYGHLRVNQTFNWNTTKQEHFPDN	parental ratio	0.06
variant CD80 S44P/L70Q/A91G/T130A (Fc fusion) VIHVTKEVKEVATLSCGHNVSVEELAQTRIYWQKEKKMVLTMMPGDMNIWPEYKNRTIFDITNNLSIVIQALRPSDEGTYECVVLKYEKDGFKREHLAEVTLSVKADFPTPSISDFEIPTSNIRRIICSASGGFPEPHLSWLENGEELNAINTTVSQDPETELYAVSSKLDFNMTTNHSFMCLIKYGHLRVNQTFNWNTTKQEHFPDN	parental ratio	0.92
variant CD80 A12V/S15F/Y31H/M38L/T41G/M43L/D90N/T130A/P137L/N149D/N152T (Fc fusion) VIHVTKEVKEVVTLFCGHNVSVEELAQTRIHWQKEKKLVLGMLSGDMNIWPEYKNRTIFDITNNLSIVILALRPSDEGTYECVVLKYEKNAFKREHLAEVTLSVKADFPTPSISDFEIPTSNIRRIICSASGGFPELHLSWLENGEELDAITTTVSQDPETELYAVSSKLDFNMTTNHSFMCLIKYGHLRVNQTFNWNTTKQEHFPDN	parental ratio	0.06

In the following, a different binder is considered.
Qu. Provide parental ratio value for the following binder: variant CD80 I67F/L70R/E88G/A91G/I118V/T120S/T130A (Fc fusion) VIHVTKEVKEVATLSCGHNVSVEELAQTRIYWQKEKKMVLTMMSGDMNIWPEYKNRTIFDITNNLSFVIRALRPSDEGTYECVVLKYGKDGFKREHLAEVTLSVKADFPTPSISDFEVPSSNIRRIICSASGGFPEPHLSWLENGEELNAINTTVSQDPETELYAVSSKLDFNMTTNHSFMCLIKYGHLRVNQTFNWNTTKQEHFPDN
Ans. 0.05
